# method.description: Protein binding in BALB/c mouse
# Type: ADME, organism-based
# condition.summary: in vivo, read-out: PB
endpoint.label: fraction unbound

Q. # query: fraction unbound of entry CCOc1ccn(-c2ccc(F)cc2)c(=O)c1C(=O)Nc1ccc(Oc2ccnc(N)c2Cl)c(F)c1
A. < 0.01

---

# method.description: Inhibition of CDK2E
pIC50: −log10 of the molar value.
endpoint.label: pIC50

Q. # query: pIC50 of entry CCOc1ccn(-c2ccc(F)cc2)c(=O)c1C(=O)Nc1ccc(Oc2ccnc(N)c2Cl)c(F)c1 [BMS-777607]
A. < 5.70

---

# method.description: Clearance in Beagle dog at 1 mg/kg, iv
# Format: ADME, organism-based, Canis lupus familiaris
# Parameters: dose 1 mg/kg, route intravenous
# condition.summary: in vivo
endpoint.label: clearance (mL/min/kg)
All answers are understood in mL/min/kg, so give the number only.

Q. # query: clearance of entry CCOc1ccn(-c2ccc(F)cc2)c(=O)c1C(=O)Nc1ccc(Oc2ccnc(N)c2Cl)c(F)c1
A. 0.82

---

# method.description: Volume of distribution at steady state in Sprague-Dawley rat at 5 mg/kg, iv
# Format: ADME, organism-based
# Parameters: dose 5 mg/kg, route intravenous
# condition.summary: in vivo, read-out: Vdss
endpoint.label: Vd (L/kg)
All answers are understood in L/kg, so give the number only.

Q. # query: Vd of entry CCOc1ccn(-c2ccc(F)cc2)c(=O)c1C(=O)Nc1ccc(Oc2ccnc(N)c2Cl)c(F)c1 [BMS-777607]
A. 1

---

# system.under.test: MAP kinase-activated protein kinase 2 (Homo sapiens, UniProt P49137)
# Sequence (P49137 whole entry): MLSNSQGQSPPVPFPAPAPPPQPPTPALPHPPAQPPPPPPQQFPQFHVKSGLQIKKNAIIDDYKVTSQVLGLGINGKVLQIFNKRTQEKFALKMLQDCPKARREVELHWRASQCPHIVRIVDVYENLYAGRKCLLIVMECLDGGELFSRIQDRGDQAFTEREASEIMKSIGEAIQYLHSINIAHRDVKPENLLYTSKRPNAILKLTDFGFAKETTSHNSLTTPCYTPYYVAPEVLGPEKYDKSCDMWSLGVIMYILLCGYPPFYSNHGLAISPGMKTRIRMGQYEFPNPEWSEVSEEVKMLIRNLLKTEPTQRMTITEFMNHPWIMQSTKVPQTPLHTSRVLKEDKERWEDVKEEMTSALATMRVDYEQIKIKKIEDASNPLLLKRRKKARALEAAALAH
# method.description: Inhibition of MK2
endpoint.label: IC50

Q. # query: IC50 of entry CCOc1ccn(-c2ccc(F)cc2)c(=O)c1C(=O)Nc1ccc(Oc2ccnc(N)c2Cl)c(F)c1
A. > 2000 nM

---

# system.under.test: Hepatocyte growth factor receptor (Homo sapiens, UniProt P08581)
# Sequence (P08581 whole entry): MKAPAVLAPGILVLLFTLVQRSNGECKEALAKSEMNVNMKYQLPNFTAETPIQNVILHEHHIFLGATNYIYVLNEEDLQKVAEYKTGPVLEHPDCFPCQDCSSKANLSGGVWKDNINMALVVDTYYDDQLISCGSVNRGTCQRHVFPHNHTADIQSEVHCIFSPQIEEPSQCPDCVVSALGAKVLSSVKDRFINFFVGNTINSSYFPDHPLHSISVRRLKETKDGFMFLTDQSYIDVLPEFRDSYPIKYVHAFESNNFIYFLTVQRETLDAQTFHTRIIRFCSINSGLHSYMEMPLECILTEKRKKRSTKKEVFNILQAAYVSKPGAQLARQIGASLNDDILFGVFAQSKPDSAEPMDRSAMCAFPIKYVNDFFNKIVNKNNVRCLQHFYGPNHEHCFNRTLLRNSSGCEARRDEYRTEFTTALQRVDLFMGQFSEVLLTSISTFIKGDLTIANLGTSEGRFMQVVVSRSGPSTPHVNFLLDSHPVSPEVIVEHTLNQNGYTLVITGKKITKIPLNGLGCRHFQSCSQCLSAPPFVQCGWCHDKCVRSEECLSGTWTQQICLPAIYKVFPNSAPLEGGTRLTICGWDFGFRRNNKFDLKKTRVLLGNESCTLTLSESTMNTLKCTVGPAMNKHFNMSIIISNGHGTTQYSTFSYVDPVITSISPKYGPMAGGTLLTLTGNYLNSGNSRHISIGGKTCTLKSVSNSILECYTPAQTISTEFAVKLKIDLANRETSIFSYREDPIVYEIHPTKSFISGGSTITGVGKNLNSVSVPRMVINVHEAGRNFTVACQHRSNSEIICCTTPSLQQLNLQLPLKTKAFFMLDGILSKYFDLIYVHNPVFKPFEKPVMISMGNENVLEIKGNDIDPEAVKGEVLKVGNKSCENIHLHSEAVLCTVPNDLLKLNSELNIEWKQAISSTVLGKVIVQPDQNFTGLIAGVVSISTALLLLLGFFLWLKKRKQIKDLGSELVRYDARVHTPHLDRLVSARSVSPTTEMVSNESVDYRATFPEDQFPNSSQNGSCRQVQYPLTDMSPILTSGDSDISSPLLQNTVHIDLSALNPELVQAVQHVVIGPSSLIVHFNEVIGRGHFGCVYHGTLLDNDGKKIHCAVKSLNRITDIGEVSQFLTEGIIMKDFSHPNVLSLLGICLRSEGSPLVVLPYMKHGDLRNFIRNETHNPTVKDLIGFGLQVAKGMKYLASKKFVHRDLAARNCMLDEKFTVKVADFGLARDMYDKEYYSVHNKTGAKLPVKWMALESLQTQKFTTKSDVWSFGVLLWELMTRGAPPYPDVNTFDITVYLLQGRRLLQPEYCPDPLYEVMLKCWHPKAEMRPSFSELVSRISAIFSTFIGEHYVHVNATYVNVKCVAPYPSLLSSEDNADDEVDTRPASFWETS
# method.description: Inhibition of Met phosphorylation in human GTL16 cells after 30 mins
# Assay type: cell-based
endpoint.label: IC50 (nM)
All answers are understood in nM, so give the number only.

Q. # query: IC50 of entry CCOc1ccn(-c2ccc(F)cc2)c(=O)c1C(=O)Nc1ccc(Oc2ccnc(N)c2Cl)c(F)c1
A. 20

---

# method.description: Aqueous solubility at pH 1.0
# Assay type: physicochemical
endpoint.label: solubility (µg/mL)
All answers are understood in µg/mL, so give the number only.

Q. # query: solubility of entry CCOc1ccn(-c2ccc(F)cc2)c(=O)c1C(=O)Nc1ccc(Oc2ccnc(N)c2Cl)c(F)c1 [BMS-777607]
A. 400

---

# method.description: Oral bioavailability in BALB/c mouse at 10 mg/kg
# Assay type: ADME, organism-based
# condition.summary: in vivo
endpoint.label: bioavailability (%)
All answers are understood in %, so give the number only.

Q. # query: bioavailability of entry CCOc1ccn(-c2ccc(F)cc2)c(=O)c1C(=O)Nc1ccc(Oc2ccnc(N)c2Cl)c(F)c1 [BMS-777607]
A. 100

---

# system.under.test: Inhibitor of NF-kappa-B kinase alpha/beta (Homo sapiens, UniProt O14920+O15111)
# Sequence (O14920 whole entry): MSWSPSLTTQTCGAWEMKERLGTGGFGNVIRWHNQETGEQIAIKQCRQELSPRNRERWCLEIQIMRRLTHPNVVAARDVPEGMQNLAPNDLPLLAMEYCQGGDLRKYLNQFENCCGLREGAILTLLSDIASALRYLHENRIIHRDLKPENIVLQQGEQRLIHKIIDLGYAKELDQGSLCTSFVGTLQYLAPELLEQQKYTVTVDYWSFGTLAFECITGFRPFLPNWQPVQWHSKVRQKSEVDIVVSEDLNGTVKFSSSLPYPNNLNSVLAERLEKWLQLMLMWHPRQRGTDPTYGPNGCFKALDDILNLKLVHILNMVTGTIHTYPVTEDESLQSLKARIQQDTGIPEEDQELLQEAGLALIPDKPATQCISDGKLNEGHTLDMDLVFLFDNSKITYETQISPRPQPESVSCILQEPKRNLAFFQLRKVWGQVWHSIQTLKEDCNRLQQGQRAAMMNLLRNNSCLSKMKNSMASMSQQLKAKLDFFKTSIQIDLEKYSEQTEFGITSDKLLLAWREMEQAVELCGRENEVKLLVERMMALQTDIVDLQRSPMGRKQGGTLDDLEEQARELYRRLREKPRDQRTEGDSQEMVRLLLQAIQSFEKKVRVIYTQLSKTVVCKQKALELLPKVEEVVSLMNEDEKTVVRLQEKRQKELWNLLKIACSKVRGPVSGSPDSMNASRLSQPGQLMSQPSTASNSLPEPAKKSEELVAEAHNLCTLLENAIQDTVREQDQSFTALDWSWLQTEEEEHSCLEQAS
# Sequence (O15111 whole entry): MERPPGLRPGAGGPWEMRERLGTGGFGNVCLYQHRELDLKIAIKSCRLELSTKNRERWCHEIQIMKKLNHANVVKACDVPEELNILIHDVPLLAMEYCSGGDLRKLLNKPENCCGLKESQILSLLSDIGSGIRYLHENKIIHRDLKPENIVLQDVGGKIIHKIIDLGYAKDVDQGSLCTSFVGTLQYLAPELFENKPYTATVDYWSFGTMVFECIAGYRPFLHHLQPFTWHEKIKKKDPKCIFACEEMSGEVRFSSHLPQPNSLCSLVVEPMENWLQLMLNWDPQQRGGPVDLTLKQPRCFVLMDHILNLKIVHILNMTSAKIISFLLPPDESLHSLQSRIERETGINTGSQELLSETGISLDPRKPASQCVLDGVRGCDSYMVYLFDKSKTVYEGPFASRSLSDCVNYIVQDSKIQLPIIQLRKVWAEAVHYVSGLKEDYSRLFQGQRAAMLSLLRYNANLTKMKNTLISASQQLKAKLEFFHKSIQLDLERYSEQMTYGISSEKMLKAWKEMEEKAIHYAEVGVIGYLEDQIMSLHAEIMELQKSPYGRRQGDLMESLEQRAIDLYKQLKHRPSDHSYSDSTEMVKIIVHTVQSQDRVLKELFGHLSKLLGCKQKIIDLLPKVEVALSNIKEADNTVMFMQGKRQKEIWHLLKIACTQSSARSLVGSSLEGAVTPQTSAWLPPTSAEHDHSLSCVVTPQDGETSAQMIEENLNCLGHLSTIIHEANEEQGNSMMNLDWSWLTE
# method.description: Inhibition of IKK1/2
pIC50: −log10 of the molar value.
endpoint.label: pIC50

Q. # query: pIC50 of entry CCOc1ccn(-c2ccc(F)cc2)c(=O)c1C(=O)Nc1ccc(Oc2ccnc(N)c2Cl)c(F)c1
A. < 5.70

---

# method.description: Cmax in human GTL16 cells xenografted athymic mouse at 6.25 mg/kg, po
# Format: ADME, organism-based
# Set-up: dose 6.25 mg/kg, route oral
# condition.summary: in vivo
endpoint.label: Cmax (µM)
All answers are understood in µM, so give the number only.

Q. # query: Cmax of entry CCOc1ccn(-c2ccc(F)cc2)c(=O)c1C(=O)Nc1ccc(Oc2ccnc(N)c2Cl)c(F)c1 [BMS-777607]
A. 4.5

---

# method.description: Half life in BALB/c mouse at 5 mg/kg, iv
# Type: ADME, organism-based
# Parameters: dose 5 mg/kg, route intravenous
# condition.summary: in vivo
endpoint.label: half-life
Please don't drop the unit; write it after the number.

Q. # query: half-life of entry CCOc1ccn(-c2ccc(F)cc2)c(=O)c1C(=O)Nc1ccc(Oc2ccnc(N)c2Cl)c(F)c1
A. 4.5 h

---

# system.under.test: Mitogen-activated protein kinase 14 (Homo sapiens)
# Sequence (Q16539 whole entry): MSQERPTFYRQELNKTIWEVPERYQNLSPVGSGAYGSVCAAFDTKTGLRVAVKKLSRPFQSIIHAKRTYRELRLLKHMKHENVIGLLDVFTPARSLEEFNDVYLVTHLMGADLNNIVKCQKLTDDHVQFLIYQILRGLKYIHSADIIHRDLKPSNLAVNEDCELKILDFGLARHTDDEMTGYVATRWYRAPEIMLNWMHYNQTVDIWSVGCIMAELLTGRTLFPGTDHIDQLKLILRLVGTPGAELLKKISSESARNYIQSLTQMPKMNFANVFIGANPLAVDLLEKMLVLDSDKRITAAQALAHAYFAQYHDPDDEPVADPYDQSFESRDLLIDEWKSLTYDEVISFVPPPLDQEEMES
# method.description: Inhibition of p38alpha
endpoint.label: IC50

Q. # query: IC50 of entry CCOc1ccn(-c2ccc(F)cc2)c(=O)c1C(=O)Nc1ccc(Oc2ccnc(N)c2Cl)c(F)c1
A. > 2000 nM

---

# method.description: Clearance in Sprague-Dawley rat at 5 mg/kg, iv
# Type: ADME, organism-based
# Set-up: dose 5 mg/kg, route intravenous
# condition.summary: in vivo
endpoint.label: clearance (mL/min/kg)
All answers are understood in mL/min/kg, so give the number only.

Q. # query: clearance of entry CCOc1ccn(-c2ccc(F)cc2)c(=O)c1C(=O)Nc1ccc(Oc2ccnc(N)c2Cl)c(F)c1 [BMS-777607]
A. 12.1

---

# method.description: Inhibition of PKA
endpoint.label: IC50 (nM)
All answers are understood in nM, so give the number only.

Q. # query: IC50 of entry CCOc1ccn(-c2ccc(F)cc2)c(=O)c1C(=O)Nc1ccc(Oc2ccnc(N)c2Cl)c(F)c1 [BMS-777607]
A. 550

---

# method.description: Protein binding in Sprague-Dawley rat
# Assay type: ADME, organism-based
# condition.summary: in vivo, read-out: PB
endpoint.label: fraction unbound

Q. # query: fraction unbound of entry CCOc1ccn(-c2ccc(F)cc2)c(=O)c1C(=O)Nc1ccc(Oc2ccnc(N)c2Cl)c(F)c1
A. < 0.01

---

# method.description: Volume of distribution at steady state in BALB/c mouse at 5 mg/kg, iv
# Type: ADME, organism-based
# Set-up: dose 5 mg/kg, route intravenous
# condition.summary: in vivo, read-out: Vdss
endpoint.label: Vd (L/kg)
All answers are understood in L/kg, so give the number only.

Q. # query: Vd of entry CCOc1ccn(-c2ccc(F)cc2)c(=O)c1C(=O)Nc1ccc(Oc2ccnc(N)c2Cl)c(F)c1
A. 1.2

---

# System: Mus musculus
# method.description: Cmax in BALB/c mouse at 10 mg/kg, po
# Type: ADME, organism-based
# Set-up: dose 10 mg/kg, route oral
# condition.summary: in vivo
endpoint.label: Cmax (µM)
All answers are understood in µM, so give the number only.

Q. # query: Cmax of entry CCOc1ccn(-c2ccc(F)cc2)c(=O)c1C(=O)Nc1ccc(Oc2ccnc(N)c2Cl)c(F)c1 [BMS-777607]
A. 17.6

---

# method.description: Clearance in BALB/c mouse at 5 mg/kg, iv
# Format: ADME, organism-based
# Parameters: dose 5 mg/kg, route intravenous
# condition.summary: in vivo
endpoint.label: clearance (mL/min/kg)
All answers are understood in mL/min/kg, so give the number only.

Q. # query: clearance of entry CCOc1ccn(-c2ccc(F)cc2)c(=O)c1C(=O)Nc1ccc(Oc2ccnc(N)c2Cl)c(F)c1 [BMS-777607]
A. 4.4

---

# system.under.test: UniProtKB P12931
# Sequence (P12931 2-536 limits assumed): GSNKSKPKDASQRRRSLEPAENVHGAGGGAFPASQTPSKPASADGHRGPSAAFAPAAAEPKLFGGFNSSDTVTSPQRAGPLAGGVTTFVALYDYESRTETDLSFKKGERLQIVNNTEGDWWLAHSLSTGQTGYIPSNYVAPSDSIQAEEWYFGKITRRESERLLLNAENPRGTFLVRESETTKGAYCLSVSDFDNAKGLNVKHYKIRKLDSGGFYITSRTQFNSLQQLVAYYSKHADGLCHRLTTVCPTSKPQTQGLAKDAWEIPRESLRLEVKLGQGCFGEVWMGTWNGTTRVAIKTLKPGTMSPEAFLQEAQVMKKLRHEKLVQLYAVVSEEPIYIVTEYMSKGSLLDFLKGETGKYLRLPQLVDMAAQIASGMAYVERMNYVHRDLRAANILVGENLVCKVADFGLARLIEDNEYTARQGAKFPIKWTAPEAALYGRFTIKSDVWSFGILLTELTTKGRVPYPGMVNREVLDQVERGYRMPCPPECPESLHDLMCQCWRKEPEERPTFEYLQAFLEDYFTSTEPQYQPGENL
pIC50: −log10 of the molar value.
endpoint.label: pIC50

Q. # query: pIC50 of entry CCOc1ccn(-c2ccc(F)cc2)c(=O)c1C(=O)Nc1ccc(Oc2ccnc(N)c2Cl)c(F)c1 [BMS-777607]
A. < 6.30

---

# system.under.test: Tyrosine-protein kinase Blk (Homo sapiens)
# Sequence (P51451 whole entry): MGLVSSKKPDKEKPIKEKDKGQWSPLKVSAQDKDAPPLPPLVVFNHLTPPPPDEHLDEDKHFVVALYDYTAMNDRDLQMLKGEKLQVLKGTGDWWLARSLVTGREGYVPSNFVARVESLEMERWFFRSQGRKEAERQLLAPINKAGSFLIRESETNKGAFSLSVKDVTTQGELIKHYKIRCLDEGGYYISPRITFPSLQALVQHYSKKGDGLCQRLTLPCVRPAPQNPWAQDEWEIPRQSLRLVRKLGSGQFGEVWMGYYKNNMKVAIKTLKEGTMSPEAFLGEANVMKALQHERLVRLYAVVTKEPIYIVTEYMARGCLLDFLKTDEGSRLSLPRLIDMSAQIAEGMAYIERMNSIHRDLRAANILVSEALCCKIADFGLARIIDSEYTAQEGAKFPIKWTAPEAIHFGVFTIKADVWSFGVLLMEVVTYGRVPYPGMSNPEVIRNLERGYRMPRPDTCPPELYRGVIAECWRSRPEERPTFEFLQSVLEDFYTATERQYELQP
pIC50: −log10 of the molar value.
endpoint.label: pIC50

Q. # query: pIC50 of entry CCOc1ccn(-c2ccc(F)cc2)c(=O)c1C(=O)Nc1ccc(Oc2ccnc(N)c2Cl)c(F)c1 [BMS-777607]
A. < 6.30

---

# method.description: Tmax in BALB/c mouse at 10 mg/kg, po
# Assay type: ADME, organism-based
# Set-up: dose 10 mg/kg, route oral
# condition.summary: in vivo
endpoint.label: Tmax (min)
All answers are understood in min, so give the number only.

Q. # query: Tmax of entry CCOc1ccn(-c2ccc(F)cc2)c(=O)c1C(=O)Nc1ccc(Oc2ccnc(N)c2Cl)c(F)c1
A. 30

---

# method.description: AUC (0 to 24 hrs) in human GTL16 cells xenografted athymic mouse at 50 mg/kg, po
# Type: ADME, organism-based
# Design: time < 24 hr, dose 50 mg/kg, route oral
# condition.summary: in vivo
endpoint.label: AUC(0-t) at 24 h (µM·h)
All answers are understood in µM·h, so give the number only.

Q. # query: AUC(0-t) at 24 h of entry CCOc1ccn(-c2ccc(F)cc2)c(=O)c1C(=O)Nc1ccc(Oc2ccnc(N)c2Cl)c(F)c1
A. 567

---

# method.description: Antiproliferative activity against Met-driven human U87 cells after 72 hrs by MTS assay
# Format: functional, cell-based, U-87MG ATCC
# condition.summary: U-87 MG
endpoint.label: IC50 (µM)
All answers are understood in µM, so give the number only.

Q. # query: IC50 of entry CCOc1ccn(-c2ccc(F)cc2)c(=O)c1C(=O)Nc1ccc(Oc2ccnc(N)c2Cl)c(F)c1 [BMS-777607]
A. 0.16
